Some molecules, each annotated with its measured GI50.
Test system: ACHN
protocol summary: NCI tumour cell line growth inhibition, 48 h
The source made the active and inactive calls. No stated cut-off is given here; in the data, active = GI50 up to about 1.1 µM and inactive = higher.

molecule | GI50
Nc1nnc(-c2ccco2)c(-c2ccco2)n1 | > 100 µM (inactive)
O=C1Cc2c([nH]c3ccccc23)-c2cc(Br)ccc2N1 | > 100 µM (inactive)
COc1cc(C2c3cc4c(cc3OC(N3CCCC3)C2C)OCO4)cc(OC)c1OC (stereo not drawn) | 1.47 µM (inactive)
CC(NNC(=O)c1ccc[n+]([BH2-]C#N)c1)c1ccccc1 (stereo not drawn) | > 100 µM (inactive)
Cc1cn(C(Cc2ccccc2)OCCO)c(=O)[nH]c1=O (stereo not drawn) | > 100 µM (inactive)
COc1ccc(N2C(=O)C(=O)N(c3ccc(/N=N\c4ccccc4)cc3)C2=S)cc1 | 19 µM (inactive)
Cc1cc2[nH]c(=NS(=O)(=O)c3cc(C)c(Cl)cc3S)[nH]c2cc1C | 73.8 µM (inactive)
CCOC(=O)NNC(=O)C1CSC(c2ccccc2)N1C(C)=O (stereo not drawn) | > 100 µM (inactive)
